- Tested on: Liver microsome
- procedure summary: Retention time in rat liver microsomes treated with at 5 mM PPI-2458 by LC/MS analysis
- Assay type: ADME
- protocol conditions: 5000 µM
property name: Retention_time (min)

{"chemical smiles": "CO[C@@H]1[C@H](OC(=O)N[C@@H](C(N)=O)C(C)C)CC[C@]2(CO2)[C@H]1[C@@]1(C)O[C@@H]1C[C@H]1OC1(C)C", "Retention_time, min": 20.8}
{"chemical smiles": "CO[C@@H]1[C@H](OC(=O)N[C@@H](C(N)=O)C(C)C)CC[C@]2(CO2)[C@H]1[C@@]1(C)O[C@@H]1C/C=C(\\C)CO", "Retention_time, min": 17.6}
{"chemical smiles": "CO[C@@H]1[C@H](OC(=O)N[C@@H](C(N)=O)C(C)(C)O)CC[C@]2(CO2)[C@H]1[C@@]1(C)O[C@@H]1CC=C(C)C", "Retention_time, min": 26.7}
{"chemical smiles": "CO[C@@H]1[C@H](OC(=O)N[C@@H](C(N)=O)C(C)C)CC[C@]2(CO2)[C@H]1[C@@]1(C)O[C@@H]1C[C@@H]1OC1(C)C", "Retention_time, min": 20.1}
